Biological target: HSV-1 helicase-primase (Human herpesvirus 1, UniProt P10189+P10236)
Construct: made in house; host or cells: Sf21 insect cells triply infected with recombinant baculoviruses (UL5, UL8, UL52)
Sequence (P10192 whole entry): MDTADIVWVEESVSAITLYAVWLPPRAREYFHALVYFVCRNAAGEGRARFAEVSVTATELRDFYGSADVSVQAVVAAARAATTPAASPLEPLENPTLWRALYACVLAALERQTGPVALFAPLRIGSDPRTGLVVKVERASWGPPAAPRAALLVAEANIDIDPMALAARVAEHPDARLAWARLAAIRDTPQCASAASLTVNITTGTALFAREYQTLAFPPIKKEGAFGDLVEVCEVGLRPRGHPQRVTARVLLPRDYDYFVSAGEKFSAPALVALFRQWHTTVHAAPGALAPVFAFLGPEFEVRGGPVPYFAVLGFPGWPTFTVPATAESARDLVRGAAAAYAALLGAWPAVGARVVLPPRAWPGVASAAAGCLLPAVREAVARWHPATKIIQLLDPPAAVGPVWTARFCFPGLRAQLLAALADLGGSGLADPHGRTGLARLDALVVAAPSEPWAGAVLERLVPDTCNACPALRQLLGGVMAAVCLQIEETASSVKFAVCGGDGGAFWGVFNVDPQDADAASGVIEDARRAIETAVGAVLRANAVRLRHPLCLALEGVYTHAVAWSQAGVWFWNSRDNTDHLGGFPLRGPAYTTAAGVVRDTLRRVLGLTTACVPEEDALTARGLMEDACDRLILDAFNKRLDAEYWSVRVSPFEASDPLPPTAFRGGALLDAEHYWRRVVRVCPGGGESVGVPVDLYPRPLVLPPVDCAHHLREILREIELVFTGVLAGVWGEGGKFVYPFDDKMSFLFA
Sequence (P10236 whole entry): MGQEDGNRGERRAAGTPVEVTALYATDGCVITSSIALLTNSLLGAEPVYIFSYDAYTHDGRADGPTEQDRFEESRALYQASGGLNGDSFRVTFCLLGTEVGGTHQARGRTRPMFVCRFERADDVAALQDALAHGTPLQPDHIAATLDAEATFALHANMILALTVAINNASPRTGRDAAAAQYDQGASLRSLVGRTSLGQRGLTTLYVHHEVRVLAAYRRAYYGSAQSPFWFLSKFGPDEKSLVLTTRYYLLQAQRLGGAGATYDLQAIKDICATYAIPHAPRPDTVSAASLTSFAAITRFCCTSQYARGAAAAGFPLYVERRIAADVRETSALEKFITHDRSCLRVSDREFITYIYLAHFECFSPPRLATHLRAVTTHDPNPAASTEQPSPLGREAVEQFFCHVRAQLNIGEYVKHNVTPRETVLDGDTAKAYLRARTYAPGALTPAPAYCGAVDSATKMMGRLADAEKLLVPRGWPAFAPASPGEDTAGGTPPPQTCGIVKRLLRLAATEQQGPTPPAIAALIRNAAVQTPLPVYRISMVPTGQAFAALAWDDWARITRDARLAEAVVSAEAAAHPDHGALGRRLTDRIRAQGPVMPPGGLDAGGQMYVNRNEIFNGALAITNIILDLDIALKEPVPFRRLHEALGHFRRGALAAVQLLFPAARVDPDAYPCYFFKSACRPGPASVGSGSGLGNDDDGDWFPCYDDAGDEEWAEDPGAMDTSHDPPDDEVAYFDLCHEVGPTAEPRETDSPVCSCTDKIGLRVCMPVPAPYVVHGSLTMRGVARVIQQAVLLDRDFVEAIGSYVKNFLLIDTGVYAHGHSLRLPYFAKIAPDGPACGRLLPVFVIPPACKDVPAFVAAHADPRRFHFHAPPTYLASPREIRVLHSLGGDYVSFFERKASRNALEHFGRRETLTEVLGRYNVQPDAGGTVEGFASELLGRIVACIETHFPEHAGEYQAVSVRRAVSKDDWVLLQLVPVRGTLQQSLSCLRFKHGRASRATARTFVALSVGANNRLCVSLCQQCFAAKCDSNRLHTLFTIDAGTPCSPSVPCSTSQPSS
Sequence (P10189 whole entry): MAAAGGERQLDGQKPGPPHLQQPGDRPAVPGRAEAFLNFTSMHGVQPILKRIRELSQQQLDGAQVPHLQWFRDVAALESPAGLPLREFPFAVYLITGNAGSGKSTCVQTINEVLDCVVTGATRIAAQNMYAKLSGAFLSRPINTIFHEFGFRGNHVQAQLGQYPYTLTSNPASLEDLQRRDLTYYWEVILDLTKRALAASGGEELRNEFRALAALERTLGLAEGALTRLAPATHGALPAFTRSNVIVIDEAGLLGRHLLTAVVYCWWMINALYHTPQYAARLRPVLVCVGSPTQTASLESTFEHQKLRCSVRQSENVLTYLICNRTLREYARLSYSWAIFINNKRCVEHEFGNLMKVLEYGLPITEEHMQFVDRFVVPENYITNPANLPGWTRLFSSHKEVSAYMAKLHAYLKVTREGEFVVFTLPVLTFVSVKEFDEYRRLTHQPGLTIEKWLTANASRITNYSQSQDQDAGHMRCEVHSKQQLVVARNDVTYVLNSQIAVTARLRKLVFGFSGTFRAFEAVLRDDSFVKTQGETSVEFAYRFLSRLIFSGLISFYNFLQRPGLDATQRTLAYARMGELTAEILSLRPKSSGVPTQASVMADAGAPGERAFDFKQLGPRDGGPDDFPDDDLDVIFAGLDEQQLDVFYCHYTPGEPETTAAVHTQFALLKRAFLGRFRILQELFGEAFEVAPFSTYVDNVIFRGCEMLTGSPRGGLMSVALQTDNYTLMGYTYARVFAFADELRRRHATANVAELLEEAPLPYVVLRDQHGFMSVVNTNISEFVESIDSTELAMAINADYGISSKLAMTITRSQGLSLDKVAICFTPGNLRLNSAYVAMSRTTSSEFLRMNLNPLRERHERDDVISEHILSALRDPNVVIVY
Assay: HSV-1 DNA-dependent ATPase assay (inhibition of HSV-1 helicase-primase)
Assay type: biochemical
Settings: Group 1 Table 1 entries
attribute-measured: IC50

[
  {
    "smiles-str": "Nc1nc(-c2ccc(NC(=O)CN(Cc3ccccc3)C(=O)c3ccccc3)cc2)cs1",
    "value-observed": "72 nM"
  },
  {
    "smiles-str": "Nc1nc(-c2ccc(NC(=O)CN(Cc3cccc(F)c3)C(=O)c3ccncc3)cc2)cs1",
    "value-observed": "350 nM"
  },
  {
    "smiles-str": "Nc1nc(-c2ccc(NC(=O)CN(CCc3ccccn3)C(=O)c3ccncc3)cc2)cs1",
    "value-observed": "1800 nM"
  },
  {
    "smiles-str": "CC(C)CN(CC(=O)Nc1ccc(-c2csc(N)n2)cc1)C(=O)OCc1ccccc1",
    "value-observed": "3200 nM"
  },
  {
    "smiles-str": "Nc1nc(-c2ccc(NC(=O)CN(Cc3ccccc3)C(=O)CC3CCCCC3)cc2)cs1",
    "value-observed": "88 nM"
  },
  {
    "smiles-str": "CN(CC(=O)Nc1ccc(-c2csc(N)n2)cc1)C(=O)c1ccncc1",
    "value-observed": "5900 nM"
  },
  {
    "smiles-str": "Nc1nc(-c2ccc(NC(=O)CN(Cc3ccccc3)Cc3ccccc3)cc2)cs1",
    "value-observed": "550 nM"
  },
  {
    "smiles-str": "Cc1cc(C(=O)N(CC(=O)Nc2ccc(-c3csc(N)n3)cc2)Cc2ccccc2)cc(C)n1",
    "value-observed": "2900 nM"
  }
]

----------
Test system: HCMV (strain AD169)
Experiment: Inhibition of HCMV replication, plaque reduction assay (PRA, Hs-68 cells)
Assay type: cell-based, Human Cytomegalovirus (HCMV)
Settings: Human betaherpesvirus 5, AD169, Hs68, Group 1 Table 1 entries, read-out: PRA CMV EC50

[
  {
    "smiles-str": "Nc1nc(-c2ccc(NC(=O)CN(CC3CCCCC3)C(=O)C3CCCC3)cc2)cs1",
    "bound-sign": ">",
    "EC50, µM": 21
  },
  {
    "smiles-str": "Nc1nc(-c2ccc(NC(=O)CN(Cc3ccccc3)C(=O)c3ccccn3)cc2)cs1",
    "bound-sign": ">",
    "EC50, µM": 36
  },
  {
    "smiles-str": "Nc1nc(-c2ccc(NC(=O)CN(Cc3ccccc3)C(=O)c3cnccn3)cc2)cs1",
    "bound-sign": "=",
    "EC50, µM": 20
  },
  {
    "smiles-str": "CC(C)C(=O)N(CC(=O)Nc1ccc(-c2csc(N)n2)cc1)Cc1ccccc1",
    "bound-sign": "=",
    "EC50, µM": 13
  }
]

----------
Tested on: HCMV (strain AD169)
Assay: Inhibition of HCMV replication, plaque reduction assay (PRA, Hs-68 cells)
Format: cell-based, Human Cytomegalovirus (HCMV)
Conditions: Human betaherpesvirus 5, AD169, Hs68, Group 1 Table 2 entries, read-out: PRA CMV EC50
Below, each of the compounds is paired with its reported EC50 value.

[
  {
    "smiles-str": "Nc1nc(-c2ccc(NC(=O)CCN(CCN3CCCC3)Cc3ccccc3)cc2)cs1",
    "target-under-test": "HCMV (strain AD169)",
    "measurement-unit": "µM",
    "bound-sign": "=",
    "EC50": 15
  },
  {
    "smiles-str": "Nc1nc(-c2ccc(NC(=O)CCN(Cc3ccccc3)C(=O)C3CCCCC3)cc2)cs1",
    "target-under-test": "HCMV (strain AD169)",
    "measurement-unit": "µM",
    "bound-sign": "=",
    "EC50": 13
  },
  {
    "smiles-str": "C[C@@H](c1ccccc1)N(CCC(=O)Nc1ccc(-c2csc(N)n2)cc1)Cc1ccccc1",
    "target-under-test": "HCMV (strain AD169)",
    "measurement-unit": "µM",
    "bound-sign": "=",
    "EC50": 4
  },
  {
    "smiles-str": "C[C@@H](NCCC(=O)Nc1ccc(-c2csc(N)n2)cc1)c1ccccc1",
    "target-under-test": "HCMV (strain AD169)",
    "measurement-unit": "µM",
    "bound-sign": ">",
    "EC50": 6
  }
]
